Test system: S. pyogenes
Test: microbe, parasite or virus in culture
Assay type: cell-based
Settings: Streptococcus pyogenes, read-out: Parental MICs, S. pyogenes, 5 strains with varying resistotypes
Assay readout: MIC

Lab book: MIC of CCC[C@@H]1C[C@@H](C(=O)N[C@@H]([C@H]2O[C@H](SC)[C@H](O)[C@@H](O)[C@H]2O)[C@H](C)Cl)N(C)C1 noted as 0.06 µg/mL

CC[C@H]1OC(=O)[C@H](C)[C@@H](O[C@H]2C[C@@](C)(OC)[C@@H](O)[C@H](C)O2)[C@H](C)[C@@H](O[C@@H]2O[C@H](C)C[C@H](N(C)C)[C@H]2O)[C@](C)(O)C[C@@H](C)CN(C)[C@H](C)[C@@H](O)[C@]1(C)O has a reported MIC of 0.06 to 4 µg/mL

# molecule CC[C@H]1OC(=O)[C@H](C)C(=O)[C@H](C)[C@@H](O[C@@H]2O[C@H](C)C[C@H](N(C)C)[C@H]2O)[C@](C)(OC)C[C@@H](C)C(=O)[C@H](C)[C@H]2N(CCCCn3cnc(-c4cccnc4)c3)C(=O)O[C@]12C ; its MIC = 0.03 to 8 µg/mL

So, CC[C@H]1OC(=O)[C@H](C)[C@@H](O[C@H]2C[C@@](C)(OC)[C@@H](O)[C@H](C)O2)[C@H](C)[C@@H](O[C@@H]2O[C@H](C)C[C@H](N(C)C)[C@H]2O)[C@](C)(OC)C[C@@H](C)C(=O)[C@H](C)[C@@H](O)[C@]1(C)O ? Its MIC was 0.03 to 4 µg/mL

###

System: S. pneumoniae
Format: cell-based
Details: strain 1077 Macrolide-S; 8 × MIC
Record form. Attribute: single step mutation frequency. Fill in for each entry.

Lookup result for CC[C@H]1OC(=O)[C@@](C)(F)C(=O)[C@H](C)[C@@H](OC2OC(C)CC(N(C)C)C2O)[C@@](C)(OC)C[C@@H](C)C(=O)[C@H](C)[C@H]2N(CCCCn3cc(-c4cccc(N)c4)nn3)C(=O)O[C@]12C (some centres unmarked) [CEM-101] ; measured single step mutation frequency: <9.1 × 10^−9

Recorded result, CCC[C@@H]1C[C@@H](C(=O)N[C@@H]([C@H]2O[C@H](SC)[C@H](O)[C@@H](O)[C@H]2O)[C@H](C)Cl)N(C)C1 [CLN, clindamycin] , single step mutation frequency: <3.8 × 10^−10

Reported single step mutation frequency for CC[C@H]1OC(=O)[C@H](C)[C@@H](O[C@H]2C[C@@](C)(OC)[C@@H](O)[C@H](C)O2)[C@H](C)[C@@H](O[C@@H]2O[C@H](C)C[C@H](N(C)C)[C@H]2O)[C@](C)(OC)C[C@@H](C)C(=O)[C@H](C)[C@@H](O)[C@]1(C)O [CLR, clarithromycin] was <1.2 × 10^−10

In plain terms, CC[C@H]1OC(=O)[C@H](C)[C@@H](O[C@H]2C[C@@](C)(OC)[C@@H](O)[C@H](C)O2)[C@H](C)[C@@H](O[C@@H]2O[C@H](C)C[C@H](N(C)C)[C@H]2O)[C@](C)(O)C[C@@H](C)CN(C)[C@H](C)[C@@H](O)[C@]1(C)O [AZI, azithromycin] has a documented single step mutation frequency of <1.9 × 10^−10

So, CC[C@H]1OC(=O)[C@H](C)C(=O)[C@H](C)[C@@H](O[C@@H]2O[C@H](C)C[C@H](N(C)C)[C@H]2O)[C@](C)(OC)C[C@@H](C)C(=O)[C@H](C)[C@H]2N(CCCCn3cnc(-c4cccnc4)c3)C(=O)O[C@]12C [TEL, telithromycin] ? Its single step mutation frequency was <5.5 × 10^−10

###

Test system: M. fermentans
Type: cell-based
Conditions: Mycoplasmopsis fermentans; M. fermentans (15 isolates)
Assay readout: MIC90

Entry C[C@H]1COc2c(N3CCN(C)CC3)c(F)cc3c(=O)c(C(=O)O)cn1c23 : MIC90 on M. fermentans = 0.125 µg/mL

The molecule CC[C@H]1OC(=O)[C@H](C)C(=O)[C@H](C)[C@@H](O[C@@H]2O[C@H](C)C[C@H](N(C)C)[C@H]2O)[C@](C)(OC)C[C@@H](C)C(=O)[C@H](C)[C@H]2N(CCCCn3cnc(-c4cccnc4)c3)C(=O)O[C@]12C on M. fermentans: MIC90 was 0.016 µg/mL

Result for CC[C@H]1OC(=O)[C@@](C)(F)C(=O)[C@H](C)[C@@H](OC2OC(C)CC(N(C)C)C2O)[C@@](C)(OC)C[C@@H](C)C(=O)[C@H](C)[C@H]2N(CCCCn3cc(-c4cccc(N)c4)nn3)C(=O)O[C@]12C (some centres unmarked) , tested on M. fermentans, MIC90: ≤ 0.008 µg/mL

Measured MIC90 (M. fermentans), entry C[C@H]1c2cccc(O)c2C(=O)C2=C(O)[C@]3(O)C(=O)C(C(N)=O)=C(O)[C@@H](N(C)C)[C@@H]3[C@@H](O)[C@@H]21 : 0.5 µg/mL

Case CC(=O)NC[C@H]1CN(c2ccc(N3CCOCC3)c(F)c2)C(=O)O1 , M. fermentans, MIC90 recorded as 4 µg/mL

###

Test system: pneumococci
Experiment: microbe, parasite or virus in culture
Assay type: cell-based, S. pneumoniae
Conditions: Streptococcus pneumoniae, read-out: MIC range, pneumococci, L4 mutations (27)
Assign MIC to each entry below.

Sample C[C@H]1COc2c(N3CCN(C)CC3)c(F)cc3c(=O)c(C(=O)O)cn1c23 ; MIC observed: 0.5 to 16 µg/mL

MIC for CC[C@H]1OC(=O)[C@H](C)[C@@H](O[C@H]2C[C@@](C)(OC)[C@@H](O)[C@H](C)O2)[C@H](C)[C@@H](O[C@@H]2O[C@H](C)C[C@H](N(C)C)[C@H]2O)[C@](C)(OC)C[C@@H](C)C(=O)[C@H](C)[C@@H](O)[C@]1(C)O is 1 to 32 µg/mL

Item: CC[C@H]1OC(=O)[C@H](C)C(=O)[C@H](C)[C@@H](O[C@@H]2O[C@H](C)C[C@H](N(C)C)[C@H]2O)[C@](C)(OC)C[C@@H](C)C(=O)[C@H](C)[C@H]2N(CCCCn3cnc(-c4cccnc4)c3)C(=O)O[C@]12C | MIC: 0.06 to 0.25 µg/mL

The reported MIC of the molecule COc1c(N2C[C@@H]3CCCN[C@@H]3C2)c(F)cc2c(=O)c(C(=O)O)cn(C3CC3)c12 was 0.125 to 4 µg/mL

GET /value?item= CCC[C@@H]1C[C@@H](C(=O)N[C@@H]([C@H]2O[C@H](SC)[C@H](O)[C@@H](O)[C@H]2O)[C@H](C)Cl)N(C)C1 &field=MIC returns 0.03 to 0.125 µg/mL

###

Test system: S. pyogenes
Format: cell-based
Settings: strain 2132 Macrolide-S; 4 × MIC
Provide the reported single step mutation frequency of each item.

single step mutation frequency measured on CCC[C@@H]1C[C@@H](C(=O)N[C@@H]([C@H]2O[C@H](SC)[C@H](O)[C@@H](O)[C@H]2O)[C@H](C)Cl)N(C)C1 [CLN, clindamycin] = <7.7 × 10^−11

single step mutation frequency measured on CC[C@H]1OC(=O)[C@H](C)[C@@H](O[C@H]2C[C@@](C)(OC)[C@@H](O)[C@H](C)O2)[C@H](C)[C@@H](O[C@@H]2O[C@H](C)C[C@H](N(C)C)[C@H]2O)[C@](C)(O)C[C@@H](C)CN(C)[C@H](C)[C@@H](O)[C@]1(C)O [AZI, azithromycin] = <1.0 × 10^−10

// single step mutation frequency lookup, molecule = CC[C@H]1OC(=O)[C@@](C)(F)C(=O)[C@H](C)[C@@H](OC2OC(C)CC(N(C)C)C2O)[C@@](C)(OC)C[C@@H](C)C(=O)[C@H](C)[C@H]2N(CCCCn3cc(-c4cccc(N)c4)nn3)C(=O)O[C@]12C (some centres unmarked) [CEM-101] , result: <1.0 × 10^−10

What the record says about CC[C@H]1OC(=O)[C@H](C)C(=O)[C@H](C)[C@@H](O[C@@H]2O[C@H](C)C[C@H](N(C)C)[C@H]2O)[C@](C)(OC)C[C@@H](C)C(=O)[C@H](C)[C@H]2N(CCCCn3cnc(-c4cccnc4)c3)C(=O)O[C@]12C [TEL, telithromycin] : single step mutation frequency is <8.3 × 10^−11

Documented single step mutation frequency of CC[C@H]1OC(=O)[C@H](C)[C@@H](O[C@H]2C[C@@](C)(OC)[C@@H](O)[C@H](C)O2)[C@H](C)[C@@H](O[C@@H]2O[C@H](C)C[C@H](N(C)C)[C@H]2O)[C@](C)(OC)C[C@@H](C)C(=O)[C@H](C)[C@@H](O)[C@]1(C)O [CLR, clarithromycin] : <1.0 × 10^−10
